System: M. galloprovincialis plantigrade larvae
run description: Mussel plantigrade larvae settlement, 15 h acute exposure assay
Format: in vivo
measurement context: Mytilus galloprovincialis, 15 h, 95% LCL, UCL in brackets, read-out: EC50 [Conf. limits] larval settlement
recorded metric: log10(EC50) (log10 of the value in µg/mL)

{"molecule": "C=C1CCC(Cl)C(C)(C)C1C[C@@]12OC(C)(C)[C@H](Cl)C=C1C(=O)c1c(cc(O)c(C)c1O)C2=O (some centres unmarked) [Napyradiomycin 12]", "target or test system": "M. galloprovincialis plantigrade larvae", "test result": -0.02}
{"molecule": "CC(=CCCC(C)=CCC12OC(C)(C)C(Cl)CC1(Cl)C(=O)c1c(O)cc(O)cc1C2=O)CO (centres unmarked) [Napyradiomycin 2, 18-hydroxynapyradiomycin A1]", "target or test system": "M. galloprovincialis plantigrade larvae", "test result": 0.30}
{"molecule": "CC(C)=CCCC(C)=CCC12OC(C)(C)C(Cl)CC1(Cl)C(=O)c1c(O)cc(O)cc1C2=O (centres unmarked) [Napyradiomycin 1, napyradiomycin A1]", "target or test system": "M. galloprovincialis plantigrade larvae", "test result": -0.18}
{"molecule": "Cc1c(O)cc2c(c1O)C(=O)C1(Cl)CC(Cl)C(C)(C)OC1(CC1C(C)(O)CCC(Cl)C1(C)C)C2=O (centres unmarked) [Napyradiomycin 10, napyradiomycin A80915C]", "target or test system": "M. galloprovincialis plantigrade larvae", "test result": -1.00}
{"molecule": "C=C(C)C(O)CC/C(C)=C/C[C@@]12OC(C)(C)[C@H](Cl)C[C@]1(Cl)C(=O)c1c(O)cc(O)cc1C2=O (some centres unmarked) [Napyradiomycin 4, napyradiomycin A2]", "target or test system": "M. galloprovincialis plantigrade larvae", "test result": 0.80}

Source of measurements: paper PMC7024211
